Exercise: for every item that follows, state its recorded protein stability index.
B1: SPDEF (parent)
chain: FQELAGKELCAMSEEQFRQRSPLG

variants of: B1; assay: protein stability index of a GFP-peptide fusion (GPS, HEK-293T) (PSI 1-6); higher = more stable; settings: c terminus: a fixed tail appended;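 further: lentivirally expressed fusions sorted by FACS into six bins by GFP to DsRed ratio, PSI derived from sequencing read proportions per bin multiplied by bin number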

Entry "S21R" — recorded protein stability index = 2.95

Query "S21Y" yields protein stability index of 2.96

The recorded protein stability index for "C10M" is 2.91
